Where do these numbers come from? They come from paper PMC4193892.

# Test system: MDCK II cells
# Method notes: cells
# Cond: Canis lupus familiaris, 48 h, read-out: cell vitality
Measurement label: viability at 20 µM (%)
Kindly answer with a numeric value in %, unit omitted.

Worked examples, 5 molecules total:
# Molecule, Unit of measure, viability at 20 µM
data = [
    ("Oc1cc(O)c2c(c1)O[C@H](c1ccc(O)c(O)c1)[C@H](O)[C@H]2c1c(O)cc(O)c2c1O[C@H](c1ccc(O)c(O)c1)[C@H](O)[C@H]2c1c(O)cc(O)c2c1O[C@H](c1ccc(O)c(O)c1)[C@H](O)[C@H]2c1c(O)cc(O)c2c1O[C@H](c1ccc(O)c(O)c1)[C@H](O)C2 [compound 11]", "%", 86),
    ("Oc1cc(O)c2c(c1)O[C@H](c1ccc(O)c(O)c1)[C@H](O)[C@H]2c1c(O)cc2c(c1O)C[C@@H](O)[C@@H](c1ccc(O)c(O)c1)O2 [compound 9, epicatechin-(4β→6)-epicatechin]", "%", 84),
    ("Oc1cccc(O)c1O [compound 18, pyrogallol, reference compound]", "%", 96),
    ("Oc1cc(O)c2c(c1)O[C@H](c1ccc(O)c(O)c1)[C@H](O)[C@H]2c1c(O)cc(O)c2c1O[C@H](c1ccc(O)c(O)c1)[C@H](O)C2 [compound 7, epicatechin-(4β→8)-epicatechin]", "%", 108),
    ("O=C(O[C@@H]1O[C@@H]2COC(=O)c3cc(O)c(O)c(O)c3-c3c(cc(O)c(O)c3O)C(=O)O[C@H]([C@H]1O)[C@@H]2O)c1cc(O)c(O)c(O)c1 [compound 14, corilagin, reference compound]", "%", 103),
]

State the recorded viability at 20 µM for this entry: O=C1O[C@H]2[C@@H]3OC(=O)c4cc(O)c(O)c(O)c4-c4c(cc(O)c(O)c4O)C(=O)OC[C@H]2O[C@@H](OC(=O)c2cc(O)c(O)c(O)c2)[C@@H]3OC(=O)c2cc(O)c(O)c3c2[C@@H]2C1=CC(=O)[C@](O)(O3)C2(O)O [compound 13, geraniin, reference compound]
107

State the recorded viability at 20 µM for this entry: Oc1cc(O)c2c(c1)O[C@H](c1ccc(O)c(O)c1)[C@H](O)[C@H]2c1c(O)cc(O)c2c1O[C@H](c1ccc(O)c(O)c1)[C@H](O)[C@H]2c1c(O)cc(O)c2c1O[C@H](c1ccc(O)c(O)c1)[C@H](O)C2 [compound 10]
99

State the recorded viability at 20 µM for this entry: Oc1cc(O)c2c(c1)O[C@H](c1ccc(O)c(O)c1)[C@H](O)C2 [compound 2, (−)-epicatechin]
104

State the recorded viability at 20 µM for this entry: Oc1cc(O)c2c(c1)O[C@H](c1cc(O)c(O)c(O)c1)[C@@H](O)C2 [compound 3, gallocatechin]
108

State the recorded viability at 20 µM for this entry: O=C(O[C@@H]1Cc2c(O)cc(O)cc2O[C@@H]1c1ccc(O)c(O)c1)c1cc(O)c(O)c(O)c1 [compound 5, epicatechin-3-O-gallate]
106

State the recorded viability at 20 µM for this entry: O=C(O[C@@H]1Cc2c(O)cc(O)cc2O[C@@H]1c1cc(O)c(O)c(O)c1)c1cc(O)c(O)c(O)c1 [compound 6, reference compound]
92
